Values from patent US20200002414A1

- system under test: T1, human Ror2 (human, UniProt Q01974 34-403, limits assumed)
- T1 construct: also called hROR2; receptor tyrosine kinase-like orphan receptor 2
- T1 sequence (Q01974 34-403 limits assumed): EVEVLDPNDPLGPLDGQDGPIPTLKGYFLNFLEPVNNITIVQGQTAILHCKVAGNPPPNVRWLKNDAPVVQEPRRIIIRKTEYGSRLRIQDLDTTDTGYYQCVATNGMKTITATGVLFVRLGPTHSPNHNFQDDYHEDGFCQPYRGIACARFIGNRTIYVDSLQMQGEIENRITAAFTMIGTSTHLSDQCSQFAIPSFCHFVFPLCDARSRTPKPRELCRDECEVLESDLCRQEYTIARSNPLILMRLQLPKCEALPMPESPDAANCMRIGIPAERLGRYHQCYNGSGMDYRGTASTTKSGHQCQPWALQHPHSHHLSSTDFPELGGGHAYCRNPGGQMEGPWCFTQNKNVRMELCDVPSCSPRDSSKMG
- procedure text: ELISA, human Ror2, pH 7.4; also: unit not given here
test readout: Affinity ELISA pH 7.4
A bare number is all that is needed in reply.

Reference set (8 entries):
HC-L101F (antibody, V domains shown) VH: EVQLQQSGPELVKPGASVKISCKTSGYTFTEYTMHWMKQSHRKSLEWIGGINTNNGGTGYNQKFKGKATLTVDKSSSTAYMELRSLTSEDSAVYFCARGSFYSYGNSYFDYWGQGTLVTVSS VL: QIVLTQSPAIMSASPGEKVTITCSATSSVSYMHWFQQKPGTSPKLWIYGTSNLASGVPARFSGSGSGTSYSLTISRMEAEDAATYYCQQRSSYPFTFGQGTKVEIK: 1.41
HC-T053D (antibody, V domains shown) VH: EVQLQQSGPELVKPGASVKISCKTSGYTFTEYTMHWMKQSHRKSLEWIGGINDNNGGTGYNQKFKGKATLTVDKSSSTAYMELRSLTSEDSAVYFCARGSLYSYGNSYFDYWGQGTLVTVSS VL: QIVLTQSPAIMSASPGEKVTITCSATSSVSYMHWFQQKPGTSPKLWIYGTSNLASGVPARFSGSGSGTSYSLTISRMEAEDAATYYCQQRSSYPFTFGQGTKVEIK: 0.222
HC-M034D (antibody, V domains shown) VH: EVQLQQSGPELVKPGASVKISCKTSGYTFTEYTDHWMKQSHRKSLEWIGGINTNNGGTGYNQKFKGKATLTVDKSSSTAYMELRSLTSEDSAVYFCARGSLYSYGNSYFDYWGQGTLVTVSS VL: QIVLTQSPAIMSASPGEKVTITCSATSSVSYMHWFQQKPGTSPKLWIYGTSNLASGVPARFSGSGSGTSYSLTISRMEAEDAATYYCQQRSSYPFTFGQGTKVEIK: 0.211
HC-N052V (antibody, V domains shown) VH: EVQLQQSGPELVKPGASVKISCKTSGYTFTEYTMHWMKQSHRKSLEWIGGIVTNNGGTGYNQKFKGKATLTVDKSSSTAYMELRSLTSEDSAVYFCARGSLYSYGNSYFDYWGQGTLVTVSS VL: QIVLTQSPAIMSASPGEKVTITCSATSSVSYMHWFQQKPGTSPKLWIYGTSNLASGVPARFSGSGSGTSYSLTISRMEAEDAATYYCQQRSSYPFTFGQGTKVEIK: 0.34
HC-T053E (antibody, V domains shown) VH: EVQLQQSGPELVKPGASVKISCKTSGYTFTEYTMHWMKQSHRKSLEWIGGINENNGGTGYNQKFKGKATLTVDKSSSTAYMELRSLTSEDSAVYFCARGSLYSYGNSYFDYWGQGTLVTVSS VL: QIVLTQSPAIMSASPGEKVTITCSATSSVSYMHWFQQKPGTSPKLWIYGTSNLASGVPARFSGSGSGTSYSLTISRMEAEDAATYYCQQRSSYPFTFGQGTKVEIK: 0.157
HC-M034Y (antibody, V domains shown) VH: EVQLQQSGPELVKPGASVKISCKTSGYTFTEYTYHWMKQSHRKSLEWIGGINTNNGGTGYNQKFKGKATLTVDKSSSTAYMELRSLTSEDSAVYFCARGSLYSYGNSYFDYWGQGTLVTVSS VL: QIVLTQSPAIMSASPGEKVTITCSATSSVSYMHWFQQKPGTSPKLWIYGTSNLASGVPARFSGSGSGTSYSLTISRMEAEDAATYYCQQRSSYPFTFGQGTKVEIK: 0.391
HC-I051E (antibody, V domains shown) VH: EVQLQQSGPELVKPGASVKISCKTSGYTFTEYTMHWMKQSHRKSLEWIGGENTNNGGTGYNQKFKGKATLTVDKSSSTAYMELRSLTSEDSAVYFCARGSLYSYGNSYFDYWGQGTLVTVSS VL: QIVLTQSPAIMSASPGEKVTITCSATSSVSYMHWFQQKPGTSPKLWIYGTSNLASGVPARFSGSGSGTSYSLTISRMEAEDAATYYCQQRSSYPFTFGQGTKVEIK: 0.1
HC-M034E (antibody, V domains shown) VH: EVQLQQSGPELVKPGASVKISCKTSGYTFTEYTEHWMKQSHRKSLEWIGGINTNNGGTGYNQKFKGKATLTVDKSSSTAYMELRSLTSEDSAVYFCARGSLYSYGNSYFDYWGQGTLVTVSS VL: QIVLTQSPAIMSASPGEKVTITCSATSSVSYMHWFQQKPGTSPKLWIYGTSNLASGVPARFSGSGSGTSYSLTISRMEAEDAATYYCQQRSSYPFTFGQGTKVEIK: 0.185

# evaluate next
In plain terms, HC-W112L (antibody, V domains shown) VH: EVQLQQSGPELVKPGASVKISCKTSGYTFTEYTMHWMKQSHRKSLEWIGGINTNNGGTGYNQKFKGKATLTVDKSSSTAYMELRSLTSEDSAVYFCARGSLYSYGNSYFDYLGQGTLVTVSS VL: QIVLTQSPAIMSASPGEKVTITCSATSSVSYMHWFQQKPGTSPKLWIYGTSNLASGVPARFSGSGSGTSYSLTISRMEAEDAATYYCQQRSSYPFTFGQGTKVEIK has a documented Affinity ELISA pH 7.4 of 1.7
